CC50 reference
assay: Cytotoxicity against human HuH7 cells; assay type: cell-based, Huh-7

Previously resolved entries follow.
compound	measured-parameter	reported
CC(C)Oc1nc(N)nc2c1ncn2[C@@H]1O[C@H](COP(=O)(N[C@@H](C)C(=O)OCC(C)(C)C)Oc2cccc3ccccc23)[C@@H](O)[C@@]1(C)O (some centres not stated)	CC50	11 µM
CCOc1nc(N)nc2c1ncn2[C@@H]1O[C@H](COP(=O)(N[C@@H](C)C(=O)OCc2ccc(F)cc2F)Oc2cccc3ccccc23)[C@@H](O)[C@@]1(C)O (some centres not stated)	CC50	17 µM
CC(C)Oc1nc(N)nc2c1ncn2[C@@H]1O[C@H](CO)[C@@H](O)[C@@]1(C)O	CC50	> 100 µM
CNc1nc(N)nc2c1ncn2[C@@H]1O[C@H](COP(=O)(N[C@@H](C)C(=O)OCC(C)(C)C)Oc2cccc3ccccc23)[C@@H](O)[C@@]1(C)O (some centres not stated)	CC50	38 µM
CSc1nc(N)nc2c1ncn2[C@@H]1O[C@H](CO)[C@@H](O)[C@@]1(C)O	CC50	> 100 µM

Reported CC50 for "CNc1nc(N)nc2c1ncn2[C@@H]1O[C@H](CO)[C@@H](O)[C@@]1(C)O" : what is it?
> 100 µM

Reported CC50 for COCCCOc1nc(N)nc2c1ncn2[C@@H]1O[C@H](COP(=O)(N[C@@H](C)C(=O)OCC(C)(C)C)Oc2cccc3ccccc23)[C@@H](O)[C@@]1(C)O (some centres not stated) : what is it?
31 µM

---

experiment: Cytotoxicity against human HuH7 cells; type: cell-based, Huh-7
measured-parameter: CC50 (µM)
# value in µM; strip the unit string

Reported CC50 for CCOc1nc(N)nc2c1ncn2[C@@H]1O[C@H](COP(=O)(N[C@@H](C)C(=O)OCc2ccccc2)Oc2cccc3ccccc23)[C@@H](O)[C@@]1(C)O (stereo not given in full) : what is it?
11

---

CC50 reference
experiment: Cytotoxicity against human HuH7 cells; type: cell-based, Huh-7
# value in µM; strip the unit string

Previously resolved entries follow.
compound	reported
CSc1nc(N)nc2c1ncn2[C@@H]1O[C@H](COP(=O)(N[C@@H](C)C(=O)OCC(C)(C)C)Oc2cccc3ccccc23)[C@@H](O)[C@@]1(C)O (some centres undefined)	41
C[C@H](NP(=O)(OC[C@H]1O[C@@H](n2cnc3c(NCc4ccccc4)nc(N)nc32)[C@](C)(O)[C@@H]1O)Oc1cccc2ccccc12)C(=O)OCC(C)(C)C (some centres undefined)	15
CCOc1nc(N)nc2c1ncn2[C@@H]1O[C@H](COP(=O)(N[C@@H](C)C(=O)OC(C)C)Oc2cccc3ccccc23)[C@@H](O)[C@@]1(C)O (some centres undefined)	40
C[C@H](NP(=O)(OC[C@H]1O[C@@H](n2cnc3c(Cl)nc(N)nc32)[C@](C)(O)[C@@H]1O)Oc1cccc2ccccc12)C(=O)OCC(C)(C)C (some centres undefined)	16
CCOc1nc(N)nc2c1ncn2[C@@H]1O[C@H](COP(=O)(N[C@@H](C)C(=O)OCC(C)(C)C)Oc2cccc3ccccc23)[C@@H](O)[C@@]1(C)O (some centres undefined)	10

Reported CC50 for CCOc1nc(N)nc2c1ncn2[C@@H]1O[C@H](COP(=O)(N[C@@H](C)C(=O)O[C@@H](C)c2ccccc2)Oc2cccc3ccccc23)[C@@H](O)[C@@]1(C)O (some centres undefined) : what is it?
12

Reported CC50 for CCOc1nc(N)nc2c1ncn2[C@@H]1O[C@H](COP(=O)(N[C@H](C(=O)OCC(C)(C)C)C(C)C)Oc2cccc3ccccc23)[C@@H](O)[C@@]1(C)O (some centres undefined) : what is it?
24

Reported CC50 for C[C@H](NP(=O)(OC[C@H]1O[C@@H](n2cnc3c(NCCc4ccccc4)nc(N)nc32)[C@](C)(O)[C@@H]1O)Oc1cccc2ccccc12)C(=O)OCC(C)(C)C (some centres undefined) : what is it?
42

Reported CC50 for CCOc1nc(N)nc2c1ncn2[C@@H]1O[C@H](COP(=O)(N[C@@H](C)C(=O)OC2CCCCO2)Oc2cccc3ccccc23)[C@@H](O)[C@@]1(C)O (some centres undefined) : what is it?
47

Provenance of the data: ChEMBL document CHEMBL1833898
